Entries and their measured IC50 follow.
tested on: T-lymphocytes (BALB/cBYJ responder spleen cells with mitomycin C treated C57BL/6J stimulator spleen cells); assay: Mixed lymphocyte response (MLR); type: cell-based, mouse; details: Mus musculus, T-lymphocyte, 120 h; estimated IC50; 5 days at 37° C., MTT; 1, 10, 30, 100, and 300 μM
property.label: IC50

CCCCCCCCCOCCCO[C@H]1O[C@H]([C@@H](C)OCCCN(C)C)[C@@H]2OC(C)(C)O[C@H]12
< 1 µM
C[C@@H](OCCCN(C)C)[C@H]1O[C@H](OCCCc2ccccc2)[C@H]2OC(C)(C)O[C@H]21
< 1 µM
CCCCCCCCCOCCCO[C@H]1O[C@H]([C@H](O)CN2CCCC2)[C@@H]2OC(C)(C)O[C@H]12
< 1 µM
CCCCCCCCCOCCCO[C@H]1O[C@H]([C@H](O)CNCCCCCCC)[C@@H]2OC(C)(C)O[C@H]12
< 1 µM
CCCCCCCCCOCCCO[C@H]1O[C@H]([C@@H](C)OCCN2CCCC2)[C@@H]2OC(C)(C)O[C@H]12
< 0.5 µM
CCCCCCCNC[C@@H](O)[C@H]1O[C@H](OCCCc2ccccc2)[C@H]2OC(C)(C)O[C@H]21
< 1 µM
CCCCCCCCCOCCCO[C@H]1O[C@H]([C@H](O)CN2CCCCCC2)[C@@H]2OC(C)(C)O[C@H]12
< 0.5 µM
CC1(C)O[C@@H]2[C@H](O1)[C@@H](OCCCc1ccccc1)O[C@@H]2[C@H](O)CN1CCCC1
< 1 µM
C[C@@H]([C@H]1O[C@H](OCCCc2ccccc2)[C@H]2OC(C)(C)O[C@H]21)N1CCCC1
< 1 µM

====

IC50 overview
system: BUD-8 human skin fibroblast cells; experiment: BUD-8 human cell line fibroblast proliferation assay; format: cell-based; settings: Homo sapiens, Skin fibroblast, 72 h; estimated IC50; BUD-8 cells, 3 days, MTT
property.label: IC50 (µM)

CCCCCCCCCOCCCO[C@H]1O[C@H]([C@@H](C)OCCCN(C)C)[C@@H]2OC(C)(C)O[C@H]12 [Compound 10]
17
C[C@@H](OCCCN(C)C)[C@H]1O[C@H](OCCCc2ccccc2)[C@H]2OC(C)(C)O[C@H]21 [Compound 26]
65
C[C@@H]([C@H]1O[C@H](OCCCc2ccccc2)[C@H]2OC(C)(C)O[C@H]21)N1CCCC1 [Compound 24]
225
CCCCCCCCCOCCCO[C@H]1O[C@H]([C@H](O)CN2CCCCC2)[C@@H]2OC(C)(C)O[C@H]12 [Compound 4]
35

Data origin: patent US5360794A
